Biological target: TLR5 protein from pGEX-6p-1 (GST-His*10-TEV-TLR5, digested with TEV protease), used for SPR (silvery pomfret (Pampus argenteus))
Assay: SPR; BIAcore S200; TLR5 immobilised on an SA sensor chip; flaB proteins injected at 30 uL/min in PBS-P, 25°C; 1:1 Langmuir fit
MEASUREMENT_KIND: Kd (µM)
One number for each entry, in µM.

Some binders with recorded Kd:
flaB mutant F9 (R313, Arg to Ala) (natural protein) MAINVSTNVSAMTAQRYLNNAADGTQKSMERLSSGYKINSARDDAAGLQISNRLTSQSRGLDMAVRNANDGISIAQTAEGAMNETTNILQRMRDLSLQSANGSNSSSERQAIQEEVSALNDELNRIAETTSFGGNKLLNGSFGNKSFQIGADSGEAVMLSMSDMRSDTKAMGGKSYVATNGKAPDWSVTNATDLTLSYTDKQGEAREVTINAKAGDDLEEVATYINGQNGDIKASVGDEGKLQLFAANQKVSSDVTIGGGLGTEIGFAAGKDVTVKDINVTTVGGSQEAVALIDGALKAVDSQRASLGAFQNAFGHAISNLDNINENVNASRSRIKDTDYARETTQMTKSQILQQASTSVLAQAKQSPSAALSLLG	14.8
flaB mutant F7 (D152, Asp to Ala) (natural protein) MAINVSTNVSAMTAQRYLNNAADGTQKSMERLSSGYKINSARDDAAGLQISNRLTSQSRGLDMAVRNANDGISIAQTAEGAMNETTNILQRMRDLSLQSANGSNSSSERQAIQEEVSALNDELNRIAETTSFGGNKLLNGSFGNKSFQIGAASGEAVMLSMSDMRSDTKAMGGKSYVATNGKAPDWSVTNATDLTLSYTDKQGEAREVTINAKAGDDLEEVATYINGQNGDIKASVGDEGKLQLFAANQKVSSDVTIGGGLGTEIGFAAGKDVTVKDINVTTVGGSQEAVALIDGALKAVDSQRASLGAFQNRFGHAISNLDNINENVNASRSRIKDTDYARETTQMTKSQILQQASTSVLAQAKQSPSAALSLLG	71.7

Q: # get_value(readout='Kd', item= flaB mutant F4 (R91, Arg to Ala) (natural protein) MAINVSTNVSAMTAQRYLNNAADGTQKSMERLSSGYKINSARDDAAGLQISNRLTSQSRGLDMAVRNANDGISIAQTAEGAMNETTNILQAMRDLSLQSANGSNSSSERQAIQEEVSALNDELNRIAETTSFGGNKLLNGSFGNKSFQIGADSGEAVMLSMSDMRSDTKAMGGKSYVATNGKAPDWSVTNATDLTLSYTDKQGEAREVTINAKAGDDLEEVATYINGQNGDIKASVGDEGKLQLFAANQKVSSDVTIGGGLGTEIGFAAGKDVTVKDINVTTVGGSQEAVALIDGALKAVDSQRASLGAFQNRFGHAISNLDNINENVNASRSRIKDTDYARETTQMTKSQILQQASTSVLAQAKQSPSAALSLLG )
Result: 2.57
